B1: TMEM192 (parent)
chain: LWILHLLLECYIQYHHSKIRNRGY

- Variants of: B1
- PROTOCOL_SUMMARY: protein stability index of a GFP-peptide fusion (GPS, HEK-293T) (PSI 1-6); higher = more stable;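 further: lentivirally expressed fusions sorted by FACS into six bins by GFP to DsRed ratio, PSI derived from sequencing read proportions per bin multiplied by bin number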
- EXPERIMENTAL_SETUP: c terminus: a fixed tail appended
The threshold is inclusive: protein stability index of exactly 2 counts as true (1); values below receive false (0).

Answered cases to consult:
>>> df
   mutation_id      class
0          L6T   true (1)
1          L1G   true (1)
2          L8R   true (1)
3          I3E  false (0)
4          H5L   true (1)
5          E9I   true (1)
6         R20P   true (1)
7         R22I   true (1)

Query: Confirm if protein stability index reported for the variant I12K is 2 or above.
Result: true (1)

Query: Is the recorded value of protein stability index equal to or greater than 2 for this variant? L6E
Result: true (1)

Query: Test whether the variant H15R records protein stability index of 2 or higher.
Result: true (1)

Query: # bool: protein stability index of R20L >= 2
Result: false (0)

Query: In plain terms: is recorded protein stability index at least 2 for W2K ?
Result: false (0)

The reported measurements were obtained from the supplement of paper PMC10567573.
